// reported melting point per item

Answered cases to consult:
O=S(=O)(c1ccc(Cl)cc1)C1(c2cccnc2Cl)CCCCC1 ... 129 to 131 °C
CS(=O)(=O)CCCCC(c1ccc(F)cc1)S(=O)(=O)c1ccc(Cl)cc1 (centres unmarked) ... 141 to 142.5 °C
O=S(=O)(c1ccc(Cl)cc1)C(c1ccc[n+]([O-])c1)c1cc(F)ccc1F (centres unmarked) ... 183 to 184 °C
C[S+]([O-])CCCCC(c1ccccc1)S(=O)(=O)c1ccc(Cl)cc1 (centres unmarked) ... 98.5 to 99.5 °C

Value lookup for melting point; key = O=S(=O)(c1ccc(Cl)cc1)C(c1cc(F)ccc1F)c1cc(N2CCC(O)CC2)ncc1Cl (centres unmarked) 146 to 148 °C

And what about the molecule O=S(=O)(c1ccc(Cl)cc1)C(CCc1ccccn1)c1cc(F)ccc1F (centres unmarked) ? 129 to 131 °C

And what about the molecule O=S(=O)(Cc1ccccc1)c1ccc(Cl)cc1 ? 147.5 to 148.5 °C

And what about the molecule CS(=O)(=O)CCCCC(c1cncs1)S(=O)(=O)c1ccc(Cl)cc1 (centres unmarked) ? 95 to 96 °C
